Numbers sourced from the supplement of paper PMC10065799.

test system: Fer (mouse); test: phosphorylation enrichment, bacterial display (enrichment ratio); higher = better substrate or ligand; peptides without Tyr show the background;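 further: frequency after pTyr selection over input frequency; kinase dosed for 20-30% of maximal phosphorylation in three min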
Recorded phosphorylation enrichment values for a group of sequences are listed next.
Reply briefly: the number, and no unit.

sequence code: AVLALHNSTRD [TGFB1_Y81_Y81H]
system: Fer (mouse);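 further: 11-residue human phosphosite peptides and single-mutation variants displayed on the E. coli surface, counted by deep sequencing, each peptide's frequency after selection divided by its frequency in the unselected input library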;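 further: frequency after pTyr selection over input frequency; kinase dosed for 20-30% of maximal phosphorylation in three min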
result number: 0.38

[ask] What phosphorylation enrichment value was documented for this sequence, QDGFSYPSRQM [LDLR_Y847_YF] ?
[reply] 0.409

[ask] What value of phosphorylation enrichment has been reported for the following sequence? RALRHYFKLNI [ETV6_Y401_YF]
[reply] 0.369

[ask] Given the entry EQKKNYNAMKK [SCN5A_Y1495_Y1494N] , report its measured phosphorylation enrichment.
[reply] 0.538

[ask] Name the recorded phosphorylation enrichment for QCTSAYLLQPE [NANS_Y188_P189L] .
[reply] 0.611

[ask] What value of phosphorylation enrichment has been recorded for this entry: ETVHRYVELLD [AP1S3_Y87_I83T]
[reply] 0.435

[ask] Endpoint output: phosphorylation enrichment of FMCKVYSDRQP [FGFR1_Y280_P283R] . Value?
[reply] 0.587

[ask] Data request, read-out phosphorylation enrichment, for DDIPLYLKGGV [COX7A2_Y44_E40D]
[reply] 0.401

[ask] Which phosphorylation enrichment is listed for EQDRAYLEGTC [HLA-C_Y183_L180D] ?
[reply] 0.499

[ask] Name the recorded phosphorylation enrichment for EDKFMYLEFPQ [PTEN_Y240_F241L] .
[reply] 0.673

[ask] Given the entry TNDMRYPMKSE [TGDS_Y302] , report its measured phosphorylation enrichment.
[reply] 0.359
